tested on: RAW264.7; test: Antiinflammatory activity in mouse RAW264.7 cells assessed as inhibition of LPS-induced PGE2 production incubated for 1 hr prior to LPS challenge measured after 24 hrs by EIA; format: functional, cell-based
value-type: pIC50
# reply with the number alone; pIC50 is -log10 of concentration in mol/L

Answered cases to consult:
Q. Identify the reported pIC50 for the following entry. `COc1cccc2[nH]cc(CC#N)c12`
A. 4.86

Q. Identify the reported pIC50 for the following entry. `Cn1cc(CC#N)c2ccc(O)cc21`
A. 4.93

Q. Identify the reported pIC50 for the following entry. `Cn1cc(CC#N)c2cccc(O)c21`
A. 5.21

Q. Identify the reported pIC50 for the following entry. `COc1ccc2c(CC#N)c[nH]c2c1`
A. 4.08

Q. Identify the reported pIC50 for the following entry. `N#CCc1c[nH]c2cccc(OCc3ccccc3)c12`
A. 4.49

With those in mind, consider the next compound.
Q. Identify the reported pIC50 for the following entry. `COC(=O)n1cc(CC#N)c2ccc(O)cc21`
A. 4.82

###

Measured IC50 of individual entries
tested on: RAW264.7; experiment: Antiinflammatory activity in mouse RAW264.7 cells assessed as inhibition of LPS-induced PGE2 production incubated for 1 hr prior to LPS challenge measured after 24 hrs by EIA; type: functional, cell-based
Only the number, expressed in µM, is required.

Answered cases to consult:
Q. Give IC50 for `Cn1cc(CC#N)c2c(O)cccc21` tested on RAW264.7.
A. 16

Q. Give IC50 for `Cn1cc(CC#N)c2cc(O)ccc21` tested on RAW264.7.
A. 57.7

Q. Give IC50 for `N#CCc1c[nH]c2c(OCc3ccccc3)cccc12` tested on RAW264.7.
A. 73.1

With those in mind, consider the next compound.
Q. Give IC50 for `CC(=O)n1cc(CC#N)c2ccc(O)cc21` tested on RAW264.7.
A. 41.3

###

Measured pIC50 of individual entries
tested on: RAW264.7; experiment: Antiinflammatory activity in mouse RAW264.7 cells assessed as inhibition of LPS-induced PGE2 production incubated for 1 hr prior to LPS challenge measured after 24 hrs by EIA; assay type: functional, cell-based
pIC50: −log10 of the molar value.

Q. Identify the reported pIC50 for the following entry. `N#CCc1c[nH]c2cc(OCc3ccccc3)ccc12`
A. < 4.60

Q. Identify the reported pIC50 for the following entry. `N#CCc1c[nH]c2ccc(OCc3ccccc3)cc12`
A. < 4.60

Q. Identify the reported pIC50 for the following entry. `COc1cccc2c(CC#N)c[nH]c12`
A. < 4.00

Q. Identify the reported pIC50 for the following entry. `COC(=O)Cn1cc(CC#N)c2ccc(O)cc21`
A. < 4.00

---
Q. Identify the reported pIC50 for the following entry. `COc1ccc2[nH]cc(CC#N)c2c1`
A. < 4.00
